These data points were gathered from ChEMBL document CHEMBL1157539.

Here the recorded XC50 is given for each entry.
# System: Plasmodium falciparum
# assay_info: GSK_TCMDC: Inhibition of Plasmodium falciparum 3D7 in whole erythrocytes, using parasite LDH activity as an index of growth.
# Type: functional, organism-based
# stated_conditions: Plasmodium falciparum, 3D7
readout_type: XC50 (nM)

| compound | readout_type | units | quantitative_readout |
| --- | --- | --- | --- |
| CC1CN(c2cnn(Cc3ccc(NC(=O)Nc4cccc(C(F)(F)F)c4)cc3)c(=O)c2Cl)CC(C)N1 (centres undefined) | XC50 | nM | 940 |
| O=C(Nc1cccc(CN2CCCN(Cc3ncc[nH]3)CC2)c1)c1ccc(-c2ccccc2)cc1 | XC50 | nM | 654 |
| Cc1ccnc(NC(=O)c2cc(-c3cccc([N+](=O)[O-])c3)nc3onc(C)c23)c1 | XC50 | nM | 888 |
| Cc1cccc2nc(-c3ccc(-c4ccc(CN5CCCCC5CO)cc4)cc3)[nH]c12 (centres undefined) | XC50 | nM | 808 |
| COc1ccc2ncc(C#N)c(CCN3C[C@H](CNCc4ccccc4)[C@H](O)C3)c2n1 | XC50 | nM | 1060 |
| COc1ccc(-c2cc(C(=O)Nc3ccc(CCCN(C)Cc4ccc(OC)c(OC)c4)cc3)c3ccccc3n2)cc1 | XC50 | nM | 698 |
| CC(C)NCc1ccc(-c2ccc(-c3nc4cc(F)ccc4[nH]3)cc2)cc1 | XC50 | nM | 213 |
| CN(CCC(CCN1CCC(c2c[nH]c3ccccc23)CC1)c1ccccc1)C(=O)Nc1ccc(Cl)c(Cl)c1 (centres undefined) | XC50 | nM | 1190 |
| COc1cc(C(=O)NCCCN2CCN(c3cc(Cl)ccc3OC)CC2)ccc1-c1nc2cc(Cl)c(Cl)cc2[nH]1 | XC50 | nM | 731 |
| CCN(CC)CCCOC(=O)c1ccc2c(c1)-c1ccc(C(=O)OCCCN(CC)CC)c3cccc-2c13 | XC50 | nM | 933 |
| Cn1cnc(CCNC(=O)c2ccc(-c3cccc(-c4nc5ccccc5[nH]4)c3)cc2)c1 | XC50 | nM | 1100 |
| Cc1ccc2[nH]c3c(NCCCN4CCOCC4)ncnc3c2c1 | XC50 | nM | 942 |
| CC(=O)c1cccc2[nH]c(C(=O)NC3CCC(CCN4CCc5ccc(C#N)cc5C4)CC3)cc12 (centres undefined) | XC50 | nM | 842 |
| CC(=O)N(C)c1ccc(C(=O)Nc2cccc(-c3cccc(-c4nc5cc(C(F)(F)F)ccc5[nH]4)c3)c2)cc1 | XC50 | nM | 314 |
| CN(C)CCn1cc(C(=O)c2cc(Cl)ccc2O)cc1-c1nc2ccccc2c(=O)[nH]1 | XC50 | nM | 634 |
| COc1cc2nc(N(C)Cc3cccc(I)c3)nc(N)c2cc1OC | XC50 | nM | 863 |
| Cc1cc(NCCc2ccccc2)nc(NC(=N)Nc2cccc(Cl)c2)n1 | XC50 | nM | 181 |
| O=C(NC1CCC(CN2CCC(c3c[nH]c4ccccc34)CC2)CC1)c1csc(-c2cccc(Cl)c2Cl)n1 (centres undefined) | XC50 | nM | 1730 |
| COc1cc2c(cc1OCCN1CCC(N3CCCC3)CC1)N(C(=O)/C=C/c1ccccc1Cl)CC2 | XC50 | nM | 659 |
